B1: TRAF3IP2 (parent)
chain: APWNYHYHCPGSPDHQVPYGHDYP

Variants of: B1
test-protocol: protein stability index of a GFP-peptide fusion (GPS, HEK-293T) (PSI 1-6); higher = more stable;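 note: lentivirally expressed fusions sorted by FACS into six bins by GFP to DsRed ratio, PSI derived from sequencing read proportions per bin multiplied by bin number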
condition-set: c terminus: a fixed tail appended
observed-property: protein stability index
Simply state the number, no unit and no words.

Name the reported protein stability index value associated with the variant APWNYHYHCPGSPDHQVPYGHDYH [P24H]
3.02

Name the reported protein stability index value associated with the variant APWNYHYHEPGSPDHQVPYGHDYP [C9E]
2.55

Name the reported protein stability index value associated with the variant APWNYHYPCPGSPDHQVPYGHDYP [H8P]
1.99

Name the reported protein stability index value associated with the variant APWNYHYHFPGSPDHQVPYGHDYP [C9F]
1.93

Name the reported protein stability index value associated with the variant APWNEHYHCPGSPDHQVPYGHDYP [Y5E]
4.08

Name the reported protein stability index value associated with the variant APWNYHYACPGSPDHQVPYGHDYP [H8A]
2.06

Name the reported protein stability index value associated with the variant APWNYHYHCPGSPDHQIPYGHDYP [V17I]
2.15

Name the reported protein stability index value associated with the variant APWNYHYHCPGSPDHQCPYGHDYP [V17C]
2.45

Name the reported protein stability index value associated with the variant APWNYHCHCPGSPDHQVPYGHDYP [Y7C]
2.49

Name the reported protein stability index value associated with the variant APWNYHYHCMGSPDHQVPYGHDYP [P10M]
2.02

Name the reported protein stability index value associated with the variant APWNYHYVCPGSPDHQVPYGHDYP [H8V]
1.95
